B1: POU domain, class 2, transcription factor 1, residues 285 to 354; numbered along this chain, P14859 (parent)
chain: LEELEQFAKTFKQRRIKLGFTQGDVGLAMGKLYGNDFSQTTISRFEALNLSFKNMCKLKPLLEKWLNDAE

variants of: B1; assay: abundance fitness (aPCA) (normalised: wild type 0, dead -1); higher = more abundant; growth selection in yeast, the domain comes from the species named; details: Homo sapiens
true means recorded abundance fitness is -0.07 or above; false means it is below -0.07.

Ask: Record "S43Q" ; criterion: abundance fitness no lower than -0.07. Met?
Reply: true

Ask: Item: "G30R"
Reply: true

Ask: Field entry: "L61P"
Reply: true

Ask: Ok, now "Q22S"
Reply: true

Ask: "F7S" , same question.
Reply: false

Ask: What do we get for "K53T" ?
Reply: true

Ask: Again, but for "L62K"
Reply: false

Ask: Subsequent entry: "I16A"
Reply: true

Ask: Then this variant: "L62S"
Reply: false

Ask: Do the same for "R14A" please
Reply: true

Ask: Another variant to check: "F11M"
Reply: false

Ask: Now the variant "N35E"
Reply: true

Ask: Same for "Y33P"
Reply: false

Ask: Let us now turn to "K17M"
Reply: true

Ask: Next variant up: "E46G"
Reply: false

Ask: Now try "L48Y" .
Reply: true

Ask: # repeat for "T10E"
Reply: true

Ask: Now the same for "M29P"
Reply: false

Ask: What about this variant? "G30A"
Reply: true

Ask: Then what about the variant "N49K" ?
Reply: true

Ask: Would you kindly repeat that for "N54A" ?
Reply: true

Ask: Could you do the same for "E3Q" , please?
Reply: false

Ask: Input "I42H"
Reply: false

Ask: Try this variant next: "K53F"
Reply: true

Ask: Record: "D24K"
Reply: false

Ask: Then what about the variant "Q22F" ?
Reply: false

Ask: Next record, please: "L27W"
Reply: false

Ask: Try the variant "K59W"
Reply: true

Ask: Same read-out for "L18H" ?
Reply: false

Ask: What about this variant? "W65E"
Reply: false

Ask: Now the variant "T41P"
Reply: false

Ask: Entry to check: "E2K"
Reply: true
